Known PBM binding z-score of a selection of sequences
system: PPARa:RXRa (NR concentration 270 nM, RXRa partner concentration 90 nM); assay: PBM binding z-score (relative to random genomic background probes); higher = stronger binding; sequences stand for … in GC…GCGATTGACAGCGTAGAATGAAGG

Example cases with answers are listed next.
GCTAGTTGGTCAGTAAAAGGTCACACAACGGTCG    4.73
CCTATTAGTTGACTATAAGGGCAACCGAAGCTCG    0.121
GCAAGCAGGCCATTTGGGTCACTCAATGACGGGC    1.34
ATATCTAGGTTATCGGGTCATTCAGTTTGCGCAT    4.98
CGCGAAAGGTCGGTTGAGGTGAGTATACGGATAA    2.75

Then this sequence:
The value of PBM binding z-score measured for the sequence `TCTGCTAGGTCAACGATGGTCAGCAAATCTGCTA` turned out to be 3.27

----------
Known PBM binding z-score of a selection of sequences
test system: PPARg:RXRa 30nM:10nM, anti-RXR (NR concentration 30 nM, RXRa partner concentration 10 nM); assay: PBM binding z-score (relative to random genomic background probes); higher = stronger binding; sequences stand for … in GC…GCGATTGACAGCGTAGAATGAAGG
Please state the value as a number alone, without comment.

CAAACTAGGTTACCGGAAGGTCAAAGTCCGCATG    2.78
GCAGACAGGTGAAACGCAGGTTACTCAGGGTGGC    -0.6
TCTGCTAGGTCAAAGATGGTCAGCTAATCTGCTA    2.61

Param item: `TCTTGTAGATCAACAGGAGGTTAAGAAGGATCGA` ; param system: PPARg:RXRa 30nM:10nM, anti-RXR (NR concentration 30 nM, RXRa partner concentration 10 nM); output PBM binding z-score: 2.58

----------
test system: VDR homodimer (NR concentration 270 nM); assay: PBM binding z-score (relative to random genomic background probes); higher = stronger binding; sequences stand for … in GC…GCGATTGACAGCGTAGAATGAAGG
Known PBM binding z-score of a selection of sequences

Example cases with answers are listed next.
GGAACGAGGGCAAGGTTGATAGCATCTGTCGACG    1.39
CAAACTAGGTCACAGAGGTCAAAGACCGTGCGTA    6.4
CCTACTGGGCAAAGGTCATTGATCAGTCAAAGCA    2.31
AATACAGGGTCACTAGGCCAGAGTCGGTACGAAT    2.7
AGAACGAGGCCACGCTGAGTTGATAGCAGAGTAG    0.389
CGAATTAGGTCATCCAGGACAGTGAATACATTGA    2.04

The value of PBM binding z-score measured for the sequence `CTCGAAAGGTCGGGTGAGGTGAGTATACGGATAA` turned out to be 0.829

The value of PBM binding z-score measured for the sequence `ATCCCTAGGTAAAAGTTCAGTGAATCCCGAGGAT` turned out to be 1.71

The value of PBM binding z-score measured for the sequence `TAGCCTAGGTCAGATCGGGTCAGTATACGCTATA` turned out to be 0.51

The value of PBM binding z-score measured for the sequence `CAAACTAGGTCACGAAAAGTCAAAGTCGAATGAC` turned out to be 0.644

The value of PBM binding z-score measured for the sequence `TGTCAAAGTTCAAATGTAACGTAAGTATCCACAC` turned out to be 4.11

The value of PBM binding z-score measured for the sequence `ACTAGCAGGACAAGGGTCACTCAAGATTAGTCCG` turned out to be 2.01
